# key: entry, value: Minimum Bactericidal Concentration (MBC) (≧99.9% kill)
System: Staphylococcus aureus (ATCC 29213)
Assay: Antimicrobial activity, MBC, S. aureus ATCC 29213
Assay type: cell-based
Conditions: pH 4 (Sal), 1 h at room temperature
// return numeric value only (unit: µg/mL, not printed)

COMPOUND	ASSAYED_SYSTEM	MEASUREMENT_UNIT	REPORTED_RESULT
CC[N+](C)(C)CC1(C)COC(=O)N1Cl.[Cl-] (centres unmarked)	Staphylococcus aureus (ATCC 29213)	µg/mL	64
CN1C(=O)N(Cl)C(C)(C[N+](C)(C)C)C1=O.[Cl-] (centres unmarked)	Staphylococcus aureus (ATCC 29213)	µg/mL	64
CC1(C[N+](C)(C)C)COC(=O)N1Cl.[Cl-] (centres unmarked)	Staphylococcus aureus (ATCC 29213)	µg/mL	64
CC1(CS(=O)(=O)O)COC(=O)N1Cl (centres unmarked)	Staphylococcus aureus (ATCC 29213)	µg/mL	256

Now for a further compound.
**Q:** Name the recorded Minimum Bactericidal Concentration (MBC) (≧99.9% kill) of the compound listed here: `C[N+]1(C)CCC2(CC1)CN(Cl)C(=O)O2.[Cl-]`
**A:** 512
